Test: Circular dichroism (CD) analysis of alpha-helicity
Format: physicochemical
Details: benign CD buffer pH 2, 0% TFE, 222 nm, 4° C.
REPORTED_METRIC: Molar Ellipticity Benign (222 in 0% TFE) (deg cm2 dmol-1)
// note: answer is a bare numeric in deg cm2 dmol-1

Specify reported Molar Ellipticity Benign (222 in 0% TFE) for the compound shown: CC[C@H](C)[C@H](NC(=O)[C@H](C)NC(=O)[C@H](C)NC(=O)[C@]1(C)CCC/C=C/CCCCCC[C@@](C)(NC(=O)[C@H](Cc2ccccc2)NC(=O)[C@@H](NC(=O)[C@H](CC(C)C)NC(C)=O)[C@@H](C)O)C(=O)N[C@@H](C)C(=O)N[C@@H](Cc2ccc(O)cc2)C(=O)N[C@@H](Cc2c[nH]c3ccccc23)C(=O)N[C@@H](C)C(=O)N[C@@H](CCC(N)=O)C(=O)N[C@@H](CC(C)C)C(=O)N1)C(=O)N[C@H](C)C(N)=O [compound 71]
−121.2

----------
Target: MDM2 (Homo sapiens, UniProt Q00987)
Sequence (Q00987 1-125): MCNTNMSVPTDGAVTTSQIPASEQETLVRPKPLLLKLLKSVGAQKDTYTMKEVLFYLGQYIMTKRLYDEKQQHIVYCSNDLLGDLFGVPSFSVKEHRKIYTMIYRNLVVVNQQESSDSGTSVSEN
Test: Competitive fluorescence polarization assay for MDM2
Format: binding
Details: competitive FP assay, MDM2; read-out: Ki (MDM2)
pKi: −log10 of the molar value. Where a SMILES comes first, the peptide text is derived from it. Bridges are numbered along the chain shown (N, C = ends). [ ]: non-standard residue; d: D form. R8 = C=CCCCCCC[C@@](C)(N)C(=O)O; Cba = N[C@@H](CC1CCC1)C(=O)O; S5 = C=CCCC[C@](C)(N)C(=O)O; Nle = CCCC[C@H](N)C(=O)O
REPORTED_METRIC: pKi

Specify reported pKi for the compound shown: CCCC[C@H](NC(=O)[C@H](C)NC(=O)[C@H](CO)NC(=O)[C@]1(C)CCCC=CCCCCCC[C@@](C)(NC(=O)[C@H](Cc2ccccc2)NC(=O)[C@@H](NC(=O)[C@H](CC(C)C)NC(C)=O)[C@@H](C)O)C(=O)N[C@@H](CCC(=O)O)C(=O)N[C@@H](Cc2ccc(O)cc2)C(=O)N[C@@H](Cc2c[nH]c3ccccc23)C(=O)N[C@@H](CO)C(=O)N[C@@H](CCC(N)=O)C(=O)N[C@@H](CC2CCC2)C(=O)N1)C(=O)N[C@@H](C)C(N)=O [compound 245] (Ac-LTF[R8]EYWSQ[Cba][S5]SA[Nle]A-NH2; staple 4-11)
> 8.00

----------
Molecular target: MDMX (Homo sapiens, UniProt O15151)
Sequence (O15151 1-125): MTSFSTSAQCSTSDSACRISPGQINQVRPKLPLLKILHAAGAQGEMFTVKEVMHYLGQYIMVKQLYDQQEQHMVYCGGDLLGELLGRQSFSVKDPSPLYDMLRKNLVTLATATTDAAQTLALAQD
Test: Competitive fluorescence polarization assay for MDMX
Type: binding
Conditions: competitive FP assay, read-out: Ki (MDMX)
Where a SMILES comes first, the peptide text is derived from it. Bridges are numbered along the chain shown (N, C = ends). [ ]: non-standard residue; d: D form. R8 = C=CCCCCCC[C@@](C)(N)C(=O)O; S5 = C=CCCC[C@](C)(N)C(=O)O
# Ki per entry

COMPOUND | Ki
CC[C@H](C)[C@H](NC(=O)[C@H](C)NC(=O)[C@H](CO)NC(=O)[C@]1(C)CCCC=CCCCCCC[C@@](C)(NC(=O)[C@H](Cc2ccccc2)NC(=O)[C@@H](NC(=O)[C@H](CC(C)C)NC(C)=O)[C@@H](C)O)C(=O)N[C@@H](C)C(=O)N[C@@H](Cc2ccc(O)cc2)C(=O)N[C@@H](Cc2c[nH]c3ccccc23)C(=O)N[C@@H](C)C(=O)N[C@@H](CCC(N)=O)C(=O)N[C@@H](CC(C)C)C(=O)N1)C(N)=O [compound 8] (Ac-LTF[R8]AYWAQL[S5]SAI-NH2; staple 4-11) | 10 to 100 nM

Specify reported Ki for the compound shown: CCCC[C@H](NC(=O)[C@H](C)NC(=O)[C@H](C)NC(=O)[C@]1(C)CCCC=CCCCCCC[C@@](C)(NC(=O)[C@H](Cc2ccccc2)NC(=O)[C@@H](NC(=O)[C@H](CC(C)C)NC(=O)CN(C)C)[C@@H](C)O)C(=O)N[C@@H](C)C(=O)N[C@@H](Cc2ccc(O)cc2)C(=O)N[C@@H](Cc2c[nH]c3ccccc23)C(=O)N[C@@H](C)C(=O)N[C@@H](CCC(N)=O)C(=O)N[C@@H](CC(C)C)C(=O)N1)C(=O)N[C@@H](C)C(N)=O (single isomer, unassigned)
10 to 100 nM
